Biological target: T1, human ferroportin (SLC40A1) fused in frame with GFP, stably expressed in HEK293 cells (human, UniProt Q9NP59 1-571)
T1 sequence (looked up): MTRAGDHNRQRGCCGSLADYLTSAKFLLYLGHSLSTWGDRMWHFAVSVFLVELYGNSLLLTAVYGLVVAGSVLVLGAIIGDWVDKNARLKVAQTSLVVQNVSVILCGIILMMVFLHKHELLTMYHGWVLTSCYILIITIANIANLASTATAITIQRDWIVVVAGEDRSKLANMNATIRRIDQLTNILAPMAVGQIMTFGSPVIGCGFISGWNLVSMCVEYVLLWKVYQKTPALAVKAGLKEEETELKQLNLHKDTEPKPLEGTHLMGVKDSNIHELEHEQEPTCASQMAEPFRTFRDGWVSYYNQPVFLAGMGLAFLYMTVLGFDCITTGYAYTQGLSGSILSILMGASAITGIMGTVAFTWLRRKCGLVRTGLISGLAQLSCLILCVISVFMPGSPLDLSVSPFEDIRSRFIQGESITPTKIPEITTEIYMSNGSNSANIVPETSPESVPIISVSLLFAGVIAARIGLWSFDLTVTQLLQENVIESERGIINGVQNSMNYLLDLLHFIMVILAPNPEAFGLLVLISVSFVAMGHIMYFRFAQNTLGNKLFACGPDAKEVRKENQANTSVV
Experiment: cell-based or functional assay
Starred links: 1 amine or outer side, 2 acyl side, 3 side chain; linkers in the order of their positions; H or OH if unused. Non-standard residues stand in square brackets, D forms with d. Groups on a side chain read outwards from the residue. *: point of attachment. Dip = N[C@H](C(=O)O)C(c1ccccc1)c1ccccc1; γGlu = O=C(O)[C@H](CCC(=O)[*:2])N[*:1]; Palmitoyl = CCCCCCCCCCCCCCCC(=O)*; Myristoyl = CCCCCCCCCCCCCC(=O)*; Isovaleryl = CC(C)CC(=O)*; Ahx = NCCCCCC(=O)O; NHPr = CCCN*
result.type: FPN IC50 (µM)

Here is how some binders turned out for FPN IC50.
binder	FPN IC50 / µM
Isovaleryl-ETHFPAIK([γGlu-Myristoyl])FEPRSKG[dA]-NH2 [Isovaleric Acid-E-T-H-F-P-A-I-[Lys(IsoGlu_C14_acid)]-F-E-P-R-S-K-G-[(D)Ala]-NH2]	5.73
Isovaleryl-ETH[Dip]K([Ahx-Palmitoyl])-N_Butyl_Phe [Isovaleric Acid-E-T-H-[Dpa]-[Lys(Ahx_Palm)]-N_Butyl_Phe]	0.0622

[A] Isovaleryl-LTH[Dip]PK([Ahx-Palmitoyl])-NHPr [Isovaleric Acid-L-T-H-[Dpa]-P-[Lys(Ahx_Palm)]-Propyl_Amine]
[B] Isovaleryl-ETHFPAIK([γGlu-Myristoyl])FEPR[dS]-NH2 [Isovaleric Acid-E-T-H-F-P-A-I-[Lys(IsoGlu_C14_acid)]-F-E-P-R-[(D)Ser]-NH2]
// query Would you kindly point out which of A and B has the smaller FPN IC50 figure? // return label of chosen record
// result A
(A: 0.0873 µM, B: 3.68 µM)
